Value source: ChEMBL document CHEMBL5214935

Assay: Intrinsic clearance in rat
Format: ADME
MEASURE NAME: CLint scaled (mL/min/kg)
Express it in mL/min/kg; write the number only.

A selection of reference data follows.
Cc1ncc(S(=O)(=O)N2CC[C@H](C(=O)Nc3ccc4scnc4c3)[C@@H](F)C2)s1 (racemic) : 81
C[C@H]1CN(S(=O)(=O)c2ccc3c(c2)CCO3)CC[C@@H]1C(=O)Nc1ccc2scnc2c1 (racemic) : 506
CC1COc2ccc(S(=O)(=O)N3CCC(C(=O)Nc4ccc5scnc5c4)CC3)cc21 (racemic) : 1020
Cc1nc2cc(NC(=O)C3CCN(S(=O)(=O)c4ccc5c(c4)CCO5)CC3)ccc2s1 : 426
Cc1nn(C)cc1S(=O)(=O)N1CCC(C(=O)Nc2ccc3scnc3c2)CC1 : 45
O=C(Nc1ccc2scnc2c1)C1CCN(S(=O)(=O)c2cccnc2)CC1 : 207

Would you kindly share the measured CLint scaled for C[C@@H]1C[C@H](C(=O)Nc2ccc3scnc3c2)CCN1S(=O)(=O)c1ccc2c(c1)CCO2 (racemic) ? 572

Would you kindly share the measured CLint scaled for C[C@@H]1C[C@@H](C(=O)Nc2ccc3scnc3c2)CCN1S(=O)(=O)c1ccc2c(c1)CCO2 (racemic) ? 520
